Experiment: pH stability study
Type: physicochemical
Conditions: pH 3 buffer, 20° C., 240 min
Procedure: To a 4 mL scintillation vial containing Compound A-E (in respective experiments; 0.8 mg) was added 4 mL of either a pH 3, pH 5 pH 7 or pH 9 buffer to create a 0.2 mg/mL solution. 2 mL of this solution was added to a 2 mL HPLC vial and placed in the auto sampler of an HPLC-MS at 20° C. Timed aliquots at time (T)=15, 30, 60, 120, 240 and 480 minutes were taken and analyzed by HPLC-MS using elution method 1 (Table 3). […]
MEASURE_NAME: % Remaining (%)

Worked set:
COMPOUND | MEASURE_NAME | OBSERVED_MEASUREMENT
O=C(CCc1cccnc1)Oc1c(F)c(F)cc(F)c1F [Compound C] | % Remaining | 68.98
O=C(CCc1cccnc1)Oc1ccc([N+](=O)[O-])cc1 [Compound D, 4-Nitrophenyl-3-(pyridin-3-yl)propanoate] | % Remaining | 98.55
O=C(CCc1cccnc1)Oc1c(Cl)cccc1Cl [Compound A] | % Remaining | 100

a = O=C(CCc1cccnc1)ON1C(=O)CCC1=O [Compound E]
b = O=C(CCc1cccnc1)Oc1c(F)cccc1F [Compound B]
Could you point out whether the larger % Remaining belongs to a or to b ? Please identify the chosen entry by its label.
b
